- Test system: μ, δ and κ opioid receptors
- Method Notes: Selectivity across μ, δ and κ opioid binding to CHO membranes
- Test Conditions: ratio of Ki values, CHO membranes
Parameter Measured: Selectivity μ/δ/κ

Return reported Selectivity μ/δ/κ; argument: OC(COc1ccc2c(c1)[C@@]13CCCC[C@H]1[C@@H](C2)N(CC1CCC1)CC3)COc1ccc2c(c1)[C@@]13CCCC[C@H]1[C@@H](C2)N(CC1CCC1)CC3 [Compound 6]
1/39/1

Form field: reported Selectivity μ/δ/κ of CCCCCCCCCC(=O)Oc1ccc2c(c1)[C@@]13CCCC[C@H]1[C@@H](C2)N(CC1CCC1)CC3 [Compound 16]
1/100/1

# Selectivity μ/δ/κ lookup, item OC(COc1ccccc1)COc1ccc2c(c1)[C@@]13CCCC[C@H]1[C@@H](C2)N(CC1CCC1)CC3 (stereo partly drawn) [Compound 18]
1/13/3

Entry c1cc2c(cc1OCC1CO1)[C@@]13CCCC[C@H]1[C@@H](C2)N(CC1CCC1)CC3 (stereo partly drawn) [Compound 14] has what Selectivity μ/δ/κ?
1/27/5

Which Selectivity μ/δ/κ is listed for OC(CCCCC(O)COc1ccc2c(c1)[C@@]13CCCC[C@H]1[C@@H](C2)N(CC1CCC1)CC3)COc1ccc2c(c1)[C@@]13CCCC[C@H]1[C@@H](C2)N(CC1CCC1)CC3 (stereo partly drawn) [Compound 10] ?
1/23/1

Item OC(COc1ccc2c(c1)[C@@]13CCCC[C@H]1[C@@H](C2)N(CC1CCC1)CC3)CC(O)COc1ccc2c(c1)[C@@]13CCCC[C@H]1[C@@H](C2)N(CC1CCC1)CC3 (stereo partly drawn) [Compound 7] has what recorded Selectivity μ/δ/κ?
7/194/1
